I'd appreciate it if you could supply TGI values for the items below.
- System: OVCAR-8 ovarian
- measurement description: NCI tumour cell line growth inhibition, 48 h

| molecule | TGI |
| --- | --- |
| CNN1C(=O)c2c(C)c(C)c(C#N)c(N)c2C1=O | > 100 µM |
| CCSc1nc(-c2cccs2)nc2ccc(I)cc12 | > 100 µM |
| OCCCCCCCCCCCOc1ccc(C2OCC3(CC=CCC3)CO2)cc1 (configuration not stated) | 43.1 µM |
| CCOC(=O)CC(=O)CSc1c(-c2ccccc2)c(=O)n(-c2ccccc2)c(=S)n1-c1ccccc1 | > 100 µM |
| COC(=O)[C@]12CC[C@@H](C)[C@H](C)[C@@H]1C1=CC[C@@H]3[C@@]4(C)CC(=O)[C@H](O)[C@@](C)(CO)[C@@H]4C(=O)C[C@@]3(C)[C@]1(C)CC2 | 22.6 µM |
| Cn1cnc([N+](=O)[O-])c1Sc1nc2ccc([N+](=O)[O-])cc2[nH]1 | 39.2 µM |
| COc1ccc(Nc2nc3ccc(C(F)(F)F)cc3nc2C(=O)O)cc1 | > 100 µM |
| ClCCCCOC1CCCCO1 (configuration not stated) | > 100 µM |

Would you mind listing TGI for each of the following molecules?
1. C[N+](C)(C)CCN[N+]1(C)CCCc2ccccc21 (configuration not stated)
2. N=c1oc2ccccc2cc1C(=O)Nc1nccs1
3. C[N+]1(C)C[C@@H](O)C[C@@H]1C(=O)[O-]
4. CCCCCC(=Nc1n[nH]nc1C(N)=O)OCC

Ans:
1: > 100 µM; 2: > 92.4 µM; 3: > 100 µM; 4: > 100 µM

Would you mind listing TGI for each of the following molecules?
1. COC(=O)C1(C)CCCC2(C)c3cc(OC)ccc3C(=O)C(Br)C12 (configuration not stated)
2. COc1ccc(/C=C2\CCc3cc(OC)c(OC)cc3C2=O)cc1
3. Cc1cccc(C)c1N1C(=O)C2c3[nH]c4ccccc4c3C3CCC(C(C)(C)C)CC3C2C1=O (configuration not stated)
4. O=C(c1ccco1)c1c(C(F)(F)F)n([O-])c2ccc(F)cc2[n+]1=O
5. Cn1cc(C2=C(c3c(S(C)=O)n(C)c4ccccc34)C(=O)NC2=O)c2ccccc21 (configuration not stated)

Ans:
4.54 µM
> 10 µM
37 µM
1.17 µM
> 25 µM
